Tested on: SNU-C4 xenografted nude mice
test: Biodistribution study in SNU-C4 xenografted nude mice after intravenous injection
Type: in vivo, mouse
measurement-conditions: bone, 1 hr after intravenous injection
experimental-endpoint: % ID/g Bone (% ID/g)
Answers are plain numbers, in % ID/g.

NC(CN1CCN(CC(=O)[O-])CCNCCN(CC(=O)[O-])CC1)C(=O)[O-].[68Ga+3] (stereo not shown) [^68Ga-DO2A-ala]; 1.57
O=C([O-])CN1CCNCCN(CC(=O)[O-])CCNCC1.[68Ga+3] [^68Ga-DO2A, reference compound]; 0.72

Okay, here is my list. What is % ID/g Bone for each of these?
1. N[C@@H](CN1CCN(CC(=O)[O-])CCN(CC(=O)[O-])CCN(CC(=O)[O-])CC1)C(=O)O.[68Ga+3] (stereo in doubt) [^68Ga-DO3A-ala]
2. NC(CNC(=O)CN1CCN(CC(=O)[O-])CCN(CC(=O)[O-])CCN(CC(=O)[O-])CC1)C(=O)O.[68Ga+3] (stereo not shown) [^68Ga-DOTA-ala]

Reply:
1. 4.73
2. 0.90

Source: patent US20120029177A1
